Data provenance: PubChem BioAssay AID2465

# PROCEDURE_TEXT: A1 inhibitors via caspase activation, primary screen, cell-based, luminescence, HTS, two replicates (AID 2465)
# REPORTED_CONDITIONS: MEF A1-2A-BIM cells, caspase-Glo luminescence, 3 h; stronger effect = higher value; percent of clofoctol response, DMSO zero; concentration not given here
The campaign covered roughly 24,000 compounds. Fewer than 10 were called active. A selection follows.
Assignment: determine reported caspase activation for the given molecules.
The reply should be a number in %, with the unit left off.

Challenge: caspase activation lookup needed for COc1ccc(S(=O)(=O)Nc2ccc3c(c2)C(=O)N([C@@H](C)CO)C[C@H](C)[C@H](CN(C)S(=O)(=O)c2ccc(F)cc2)OCCCC[C@@H](C)O3)cc1 , thanks.
Response given: 0.149

Challenge: Try this molecule too: Cc1noc(C)c1S(=O)(=O)N(C)C[C@H]1OCc2cn(nn2)CCCC(=O)N([C@H](C)CO)C[C@H]1C
Response given: -0.756

Challenge: Also C[C@H](CO)N1C[C@H](C)[C@H](CN(C)C(=O)Nc2cccc3ccccc23)OCCCC[C@H](C)Oc2ccc(NC(=O)Nc3ccc4c(c3)OCO4)cc2C1=O ?
Response given: 0.835

Challenge: Also, O=C(CCCCCCC(=O)Nc1ccccc1O)N/N=C/c1ccc(CO)o1 please.
Response given: -0.255

---

Answer each item with its documented caspase activation.
# PROCEDURE_TEXT: A1 inhibitors via caspase activation, primary screen, cell-based, luminescence, HTS, two replicates (AID 2465)
# REPORTED_CONDITIONS: MEF A1-2A-BIM cells, caspase-Glo luminescence, 3 h; stronger effect = higher value; percent of clofoctol response, DMSO zero; concentration not given here
Out of some 24,000 compounds screened, fewer than 10 were called active. The list is a sample of the results.

Challenge: Look up caspase activation: Cc1ccc(S(=O)(=O)N(C)C[C@H]2Oc3c(NC(=O)c4ccc(-c5nccs5)cc4)cccc3C(=O)N([C@H](C)CO)C[C@H]2C)cc1
Response given: -0.882% (inactive)

Challenge: Now the compound COc1ccc(S(=O)(=O)Nc2ccc3c(c2)C(=O)N([C@H](C)CO)C[C@@H](C)[C@H](CN(C)S(=O)(=O)c2ccc(Cl)cc2)OCCCC[C@@H](C)O3)cc1
Response given: -1.08% (inactive)

Challenge: Let us now turn to C[C@@H]1CN([C@@H](C)CO)C(=O)c2cc(NC(=O)Cc3ccccc3)ccc2O[C@@H]1CN(C)CC1CCCCC1
Response given: 0.64% (inactive)

---

For each entry below, report its caspase activation value.
# PROCEDURE_TEXT: A1 inhibitors via caspase activation, primary screen, cell-based, luminescence, HTS, two replicates (AID 2465)
# REPORTED_CONDITIONS: MEF A1-2A-BIM cells, caspase-Glo luminescence, 3 h; stronger effect = higher value; percent of clofoctol response, DMSO zero; concentration not given here
In all, about 24,000 compounds went through this assay and fewer than 10 were called active. Only a sample is shown.
Respond with the bare value in %.

Challenge: caspase activation lookup needed for COc1ccc(CN(C)C[C@H]2OCCCC[C@H](C)Oc3ccc(NC(=O)NC4CCCCC4)cc3C(=O)N([C@@H](C)CO)C[C@@H]2C)cc1 , thanks.
Response given: 2.09

Challenge: What do we get for Cc1ccc(S(=O)(=O)Nc2ccc3c(c2)C(=O)N([C@H](C)CO)C[C@@H](C)[C@H](CN(C)C(=O)Nc2ccc(C(F)(F)F)cc2)OCCCC[C@H](C)O3)cc1 ?
Response given: -0.505

Challenge: Would you mind doing C[C@@H]1CCCCO[C@@H](CN(C)C(=O)C2CCCCC2)[C@H](C)CN([C@H](C)CO)C(=O)c2cc(NC(=O)Cc3ccccc3)ccc2O1 as well?
Response given: 3.18

Challenge: Another molecule: CCCN(C)C[C@@H]1OCCCC[C@@H](C)Oc2ccc(NC(=O)Nc3ccc(C(F)(F)F)cc3)cc2C(=O)N([C@H](C)CO)C[C@H]1C
Response given: 1.62

Challenge: Item: C[C@@H]1CN([C@H](C)CO)C(=O)c2cc(NC(=O)CCCCCC(=O)Nc3ccccc3N)ccc2O[C@H]1CN(C)Cc1ccncc1
Response given: 0.61

Challenge: // repeat for COc1ccc(S(=O)(=O)Nc2ccc3c(c2)C(=O)N([C@@H](C)CO)C[C@H](C)[C@@H](CN(C)C(=O)Nc2ccc4c(c2)OCO4)OCCCC[C@@H](C)O3)cc1 and report
Response given: 0.557

Challenge: Now try COc1ccc(CN(C)C[C@@H]2OCCCC[C@H](C)Oc3ccc(NS(=O)(=O)c4ccc(F)cc4)cc3C(=O)N([C@@H](C)CO)C[C@@H]2C)cc1 .
Response given: 0.494

Challenge: Now try COc1ccc(S(=O)(=O)N(C)C[C@@H]2OCCCC[C@H](C)Oc3ccc(NC(=O)Nc4ccccc4)cc3C(=O)N([C@@H](C)CO)C[C@H]2C)cc1 .
Response given: 0.213

Challenge: Note, next up: COc1ccc(S(=O)(=O)Nc2ccc3c(c2)C(=O)N([C@H](C)CO)C[C@@H](C)[C@H](CN(C)C(=O)c2ccncc2)OCCCC[C@@H](C)O3)cc1
Response given: 0.262

Challenge: Continue with C[C@H](CO)N1C[C@H](C)[C@H](CN(C)S(C)(=O)=O)Oc2ccc(NC(=O)c3ccncc3)cc2CC1=O
Response given: -0.8

Challenge: Consider next the molecule Cc1ccc(S(=O)(=O)Nc2ccc3c(c2)C(=O)N([C@@H](C)CO)C[C@@H](C)[C@@H](CN(C)Cc2ccc(C(F)(F)F)cc2)OCCCC[C@@H](C)O3)cc1 in the same way.
Response given: 0.898

Challenge: Note, next up: Cc1noc(C)c1S(=O)(=O)N(C)C[C@H]1OCCCC[C@H](C)Oc2ccc(NC(=O)c3ccccc3)cc2C(=O)N([C@@H](C)CO)C[C@H]1C
Response given: -0.984

Challenge: Do the same for CN(C)c1ccc(/C=N/NC(=O)c2cccc(C(=O)NO)c2)cc1 please
Response given: -7.51
